- System: Escherichia coli TOP10
- ASSAY COMMENT: shrunken log2 fold change of peptide-encoding DNA abundance (4.5 h post-induction vs induction); higher = less antimicrobial activity (less host growth inhibition)
- CONDITION NOTES: time post-induction: 4.5 h; library: site-saturation at positions 5, 18, 19, 20
As shown below, each of these sequences has a reported shrunken log2 fold change value.
Please give the numeric answer without any surrounding text.

Completed entries (count: 5):
| SEQUENCE RECORD | OBS VALUE |
| --- | --- |
| RRIRHRPPRLPRPRPRPEHLPRP | 0.0981 |
| RRIRKRPPRLPRPRPRPKDFPRP | -0.0746 |
| RRIRHRPPRLPRPRPRPLTKPRP | 0.133 |
| RRIRARPPRLPRPRPRPHDDPRP | -0.0805 |
| RRIRDRPPRLPRPRPRPQGAPRP | 0.244 |

[ask] Supply reported shrunken log2 fold change belonging to this sequence: RRIRQRPPRLPRPRPRPLMMPRP
[reply] -0.0501

[ask] Supply reported shrunken log2 fold change belonging to this sequence: RRIRRRPPRLPRPRPRPKGGPRP
[reply] 0.183

###

- Test system: Escherichia coli TOP10
- ASSAY COMMENT: shrunken log2 fold change of peptide-encoding DNA abundance (4.5 h post-induction vs induction); higher = less antimicrobial activity (less host growth inhibition)
- CONDITION NOTES: time post-induction: 4.5 h; library: site-saturation at positions 5, 18, 19, 20
As shown below, each of these sequences has a reported shrunken log2 fold change value.
Please give the numeric answer without any surrounding text.

Completed entries (count: 3):
| SEQUENCE RECORD | shrunken log2 fold change |
| --- | --- |
| RRIRHRPPRLPRPRPRPVDTPRP | -0.508 |
| RRIRIRPPRLPRPRPRPKVYPRP | -0.394 |
| RRIRLRPPRLPRPRPRPHRHPRP | -0.361 |

[ask] Supply reported shrunken log2 fold change belonging to this sequence: RRIRFRPPRLPRPRPRPKEDPRP
[reply] 0.122

[ask] Supply reported shrunken log2 fold change belonging to this sequence: RRIRTRPPRLPRPRPRPNHCPRP
[reply] -0.479

[ask] Supply reported shrunken log2 fold change belonging to this sequence: RRIRQRPPRLPRPRPRPQWTPRP
[reply] -0.126

[ask] Supply reported shrunken log2 fold change belonging to this sequence: RRIRWRPPRLPRPRPRPNCNPRP
[reply] -0.101

[ask] Supply reported shrunken log2 fold change belonging to this sequence: RRIRCRPPRLPRPRPRPEPQPRP
[reply] 0.468

[ask] Supply reported shrunken log2 fold change belonging to this sequence: RRIRLRPPRLPRPRPRPFGDPRP
[reply] -0.186

[ask] Supply reported shrunken log2 fold change belonging to this sequence: RRIRSRPPRLPRPRPRPRKQPRP
[reply] 0.248

[ask] Supply reported shrunken log2 fold change belonging to this sequence: RRIRIRPPRLPRPRPRPADHPRP
[reply] -0.0431

###

- Test system: Escherichia coli TOP10
- ASSAY COMMENT: shrunken log2 fold change of peptide-encoding DNA abundance (4.5 h post-induction vs induction); higher = less antimicrobial activity (less host growth inhibition)
- CONDITION NOTES: time post-induction: 4.5 h; library: site-saturation at positions 5, 18, 19, 20
Binary classification by shrunken log2 fold change, with 0.2 as an inclusive lower bound for Satisfied; all other cases are Not satisfied.

| SEQUENCE RECORD | LABEL VALUE |
| --- | --- |
| RRIRPRPPRLPRPRPRPFHCPRP | Not satisfied |
| RRIRNRPPRLPRPRPRPVMCPRP | Not satisfied |
| RRIRSRPPRLPRPRPRPGFEPRP | Satisfied |
| RRIRVRPPRLPRPRPRPVDDPRP | Not satisfied |

Consider the record given below.
[ask] Check this sequence for shrunken log2 fold change at or above 0.2: RRIRGRPPRLPRPRPRPELHPRP
[reply] Satisfied

###

- Tested on: Escherichia coli TOP10
- ASSAY COMMENT: shrunken log2 fold change of peptide-encoding DNA abundance (4.5 h post-induction vs induction); higher = less antimicrobial activity (less host growth inhibition)
- CONDITION NOTES: time post-induction: 4.5 h; library: site-saturation at positions 5, 18, 19, 20
As shown below, each of these sequences has a reported shrunken log2 fold change value.
Please give the numeric answer without any surrounding text.

Completed entries (count: 7):
| SEQUENCE RECORD | shrunken log2 fold change |
| --- | --- |
| RRIRRRPPRLPRPRPRPYSHPRP | -0.528 |
| RRIRWRPPRLPRPRPRPCEIPRP | -0.243 |
| RRIRNRPPRLPRPRPRPMYYPRP | 0.0222 |
| RRIRGRPPRLPRPRPRPLKIPRP | 0.365 |
| RRIRIRPPRLPRPRPRPDIEPRP | -0.185 |
| RRIRRRPPRLPRPRPRPGGQPRP | 0.175 |
| RRIRWRPPRLPRPRPRPPQMPRP | 0.592 |

[ask] Supply reported shrunken log2 fold change belonging to this sequence: RRIRDRPPRLPRPRPRPFCPPRP
[reply] -0.277

###

- System: Escherichia coli TOP10
- ASSAY COMMENT: shrunken log2 fold change of peptide-encoding DNA abundance (4.5 h post-induction vs induction); higher = less antimicrobial activity (less host growth inhibition)
- CONDITION NOTES: time post-induction: 4.5 h; library: site-saturation at positions 5, 18, 19, 20
Binary classification by shrunken log2 fold change, with -0.4 as an inclusive lower bound for True; all other cases are False.

Worked cases, answers included:
| SEQUENCE RECORD | EXPERIMENTAL TARGET | LABEL VALUE |
| --- | --- | --- |
| RRIRRRPPRLPRPRPRPEQHPRP | Escherichia coli TOP10 | True |
| RRIRTRPPRLPRPRPRPVCFPRP | Escherichia coli TOP10 | True |
| RRIRWRPPRLPRPRPRPWRGPRP | Escherichia coli TOP10 | True |

[ask] Check this sequence for shrunken log2 fold change at or above -0.4: RRIRDRPPRLPRPRPRPYFLPRP
[reply] False

[ask] Check this sequence for shrunken log2 fold change at or above -0.4: RRIRYRPPRLPRPRPRPDISPRP
[reply] False

[ask] Check this sequence for shrunken log2 fold change at or above -0.4: RRIRGRPPRLPRPRPRPVHGPRP
[reply] True

###

- System: Escherichia coli TOP10
- ASSAY COMMENT: shrunken log2 fold change of peptide-encoding DNA abundance (4.5 h post-induction vs induction); higher = less antimicrobial activity (less host growth inhibition)
- CONDITION NOTES: time post-induction: 4.5 h; library: site-saturation at positions 5, 18, 19, 20
MEASUREMENT KIND: shrunken log2 fold change
Please give the numeric answer without any surrounding text.

Completed entries (count: 3):
| SEQUENCE RECORD | shrunken log2 fold change |
| --- | --- |
| RRIRHRPPRLPRPRPRPDSWPRP | -0.0468 |
| RRIRARPPRLPRPRPRPFVMPRP | -0.181 |
| RRIRKRPPRLPRPRPRPLVEPRP | 0.734 |

[ask] Supply reported shrunken log2 fold change belonging to this sequence: RRIRHRPPRLPRPRPRPKTLPRP
[reply] -0.984

[ask] Supply reported shrunken log2 fold change belonging to this sequence: RRIRYRPPRLPRPRPRPVASPRP
[reply] -0.163

[ask] Supply reported shrunken log2 fold change belonging to this sequence: RRIRSRPPRLPRPRPRPMLEPRP
[reply] -0.0898

[ask] Supply reported shrunken log2 fold change belonging to this sequence: RRIRVRPPRLPRPRPRPTFQPRP
[reply] -0.0952

###

- Tested on: Escherichia coli TOP10;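 also: peptides expressed intracellularly from a pBAD plasmid library in pooled LB shake-flask culture, induced with 0.3% L-arabinose, DNA abundance read by NGS, three biological replicates, DESeq2 with apeglm shrinkage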
- ASSAY COMMENT: shrunken log2 fold change of peptide-encoding DNA abundance (4.5 h post-induction vs induction); higher = less antimicrobial activity (less host growth inhibition)
- CONDITION NOTES: time post-induction: 4.5 h; library: site-saturation at positions 5, 18, 19, 20
As shown below, each of these sequences has a reported shrunken log2 fold change value.
Please give the numeric answer without any surrounding text.

| SEQUENCE RECORD | EXPERIMENTAL TARGET | MEASUREMENT KIND | OBS VALUE |
| --- | --- | --- | --- |
| RRIRLRPPRLPRPRPRPPAYPRP | Escherichia coli TOP10 | shrunken log2 fold change | 0.0545 |
| RRIRCRPPRLPRPRPRPIKIPRP | Escherichia coli TOP10 | shrunken log2 fold change | -0.436 |
| RRIRRRPPRLPRPRPRPCCTPRP | Escherichia coli TOP10 | shrunken log2 fold change | -0.0151 |

[ask] Supply reported shrunken log2 fold change belonging to this sequence: RRIRCRPPRLPRPRPRPHTYPRP
[reply] -0.578

[ask] Supply reported shrunken log2 fold change belonging to this sequence: RRIRRRPPRLPRPRPRPITEPRP
[reply] 0.0622
